- Tested on: MCF7
- PROTOCOL_TEXT: Concentration required to inhibit growth of human tumor […] (breast) cell line.
- Type: functional, cell-based
pIC50: −log10 of the molar value.
MEASURED_ENDPOINT: pIC50

Some compounds with known pIC50 results, for comparison:
molecule_smiles=CC(=O)O[C@@]12CO[C@@H]1C[C@H](O)[C@@]1(C)C(=O)[C@H](OC(=O)NC3CCCCC3)C3=C(C)[C@@H](OC(=O)[C@H](O)[C@H](CC(C)C)NC(=O)OC(C)(C)C)C[C@@](O)([C@@H](OC(=O)c4ccccc4)[C@H]21)C3(C)C value_reported=7.48
molecule_smiles=CCC(=O)O[C@H]1C(=O)[C@@]2(C)[C@H]([C@H](OC(=O)c3ccccc3)[C@]3(O)C[C@H](OC(=O)[C@H](O)[C@H](C=C(C)C)NC(=O)OC(C)(C)C)C(C)=C1C3(C)C)[C@]1(OC(C)=O)CO[C@@H]1C[C@@H]2O value_reported=8.66
molecule_smiles=CC(=O)O[C@@]12CO[C@@H]1C[C@H](O)[C@@]1(C)C(=O)[C@H](OC(=O)NC(C)C)C3=C(C)[C@@H](OC(=O)[C@H](O)[C@H](C=C(C)C)NC(=O)OC(C)(C)C)C[C@@](O)([C@@H](OC(=O)c4ccccc4)[C@H]21)C3(C)C value_reported=7.19
molecule_smiles=CO[C@H]1C(=O)[C@@]2(C)[C@H]([C@H](OC(=O)c3ccccc3)[C@]3(O)C[C@H](OC(=O)[C@H](O)[C@H](CC(C)C)NC(=O)OC(C)(C)C)C(C)=C1C3(C)C)[C@]1(OC(C)=O)CO[C@@H]1C[C@@H]2O value_reported=6.67
molecule_smiles=CC(=O)O[C@@]12CO[C@@H]1C[C@H](O)[C@@]1(C)C(=O)[C@H](OC(=O)C3CC3)C3=C(C)[C@@H](OC(=O)[C@H](O)[C@H](CC(C)C)NC(=O)OC(C)(C)C)C[C@@](O)([C@@H](OC(=O)c4ccccc4)[C@H]21)C3(C)C value_reported=8.37
molecule_smiles=CC(=O)O[C@@]12CO[C@@H]1C[C@H](O)[C@@]1(C)C(=O)[C@H](OC(=O)N3CCOCC3)C3=C(C)[C@@H](OC(=O)[C@H](O)[C@H](C=C(C)C)NC(=O)OC(C)(C)C)C[C@@](O)([C@@H](OC(=O)c4ccccc4)[C@H]21)C3(C)C value_reported=7.90

P. CC(=O)O[C@@]12CO[C@@H]1C[C@H](O)[C@@]1(C)C(=O)[C@H](OC(=O)NC3CCCCC3)C3=C(C)[C@@H](OC(=O)[C@H](O)[C@H](C=C(C)C)NC(=O)OC(C)(C)C)C[C@@](O)([C@@H](OC(=O)c4ccccc4)[C@H]21)C3(C)C
Q. CC(=O)O[C@@]12CO[C@@H]1C[C@H](O)[C@@]1(C)C(=O)[C@H](OC(=O)N(C)C)C3=C(C)[C@@H](OC(=O)[C@H](O)[C@H](C=C(C)C)NC(=O)OC(C)(C)C)C[C@@](O)([C@@H](OC(=O)c4ccccc4)[C@H]21)C3(C)C
R. CC(=O)O[C@@]12CO[C@@H]1C[C@H](O)[C@@]1(C)C(=O)[C@H](OC(=O)CC(C)(C)C)C3=C(C)[C@@H](OC(=O)[C@H](O)[C@H](C=C(C)C)NC(=O)OC(C)(C)C)C[C@@](O)([C@@H](OC(=O)c4ccccc4)[C@H]21)C3(C)C
S. CCC(=O)O[C@H]1C(=O)[C@@]2(C)[C@H]([C@H](OC(=O)c3ccccc3)[C@]3(O)C[C@H](OC(=O)[C@H](O)[C@H](CC(C)C)NC(=O)OC(C)(C)C)C(C)=C1C3(C)C)[C@]1(OC(C)=O)CO[C@@H]1C[C@@H]2O
T. CNC(=O)O[C@H]1C(=O)[C@@]2(C)[C@H]([C@H](OC(=O)c3ccccc3)[C@]3(O)C[C@H](OC(=O)[C@H](O)[C@H](C=C(C)C)NC(=O)OC(C)(C)C)C(C)=C1C3(C)C)[C@]1(OC(C)=O)CO[C@@H]1C[C@@H]2O
Order the records by pIC50, with each subsequent value no larger than the one before. Quick reminder: the answer is the labels in the order asked.
S, Q, R, T, P
(S: 8.55, Q: 8.31, R: 7.98, T: 7.70, P: 7.32)

1. CCCCC(=O)O[C@H]1C(=O)[C@@]2(C)[C@H]([C@H](OC(=O)c3ccccc3)[C@]3(O)C[C@H](OC(=O)[C@H](O)[C@H](C=C(C)C)NC(=O)OC(C)(C)C)C(C)=C1C3(C)C)[C@]1(OC(C)=O)CO[C@@H]1C[C@@H]2O
2. C/C=C/C(=O)O[C@H]1C(=O)[C@@]2(C)[C@H]([C@H](OC(=O)c3ccccc3)[C@]3(O)C[C@H](OC(=O)[C@H](O)[C@H](C=C(C)C)NC(=O)OC(C)(C)C)C(C)=C1C3(C)C)[C@]1(OC(C)=O)CO[C@@H]1C[C@@H]2O
3. CCN(CC)C(=O)O[C@H]1C(=O)[C@@]2(C)[C@H]([C@H](OC(=O)c3ccccc3)[C@]3(O)C[C@H](OC(=O)[C@H](O)[C@H](C=C(C)C)NC(=O)OC(C)(C)C)C(C)=C1C3(C)C)[C@]1(OC(C)=O)CO[C@@H]1C[C@@H]2O
Please produce an ascending ranking of these compounds based on pIC50. Quick reminder: the answer is the labels in the order asked.
1, 3, 2

* * *

- Tested on: A2780
- PROTOCOL_TEXT: Cytotoxicity against A2780-WT, human ovarian carcinoma cell line
- Assay type: functional, cell-based
- MEASUREMENT_PARAMETERS: a2780
MEASURED_ENDPOINT: IC50 (nM)
Output spec: scalar in nM, unitless text.

Query: IC50; subject: `CISPLATIN`
450

* * *

- Tested on: A549
- PROTOCOL_TEXT: Concentration required to inhibit growth of human tumor A549 (NSCL) cell line.
- Format: functional, cell-based
pIC50: −log10 of the molar value.
MEASURED_ENDPOINT: pIC50

P. CNC(=O)O[C@H]1C(=O)[C@@]2(C)[C@H]([C@H](OC(=O)c3ccccc3)[C@]3(O)C[C@H](OC(=O)[C@H](O)[C@H](C=C(C)C)NC(=O)OC(C)(C)C)C(C)=C1C3(C)C)[C@]1(OC(C)=O)CO[C@@H]1C[C@@H]2O
Q. CCNC(=O)O[C@H]1C(=O)[C@@]2(C)[C@H]([C@H](OC(=O)c3ccccc3)[C@]3(O)C[C@H](OC(=O)[C@H](O)[C@H](C=C(C)C)NC(=O)OC(C)(C)C)C(C)=C1C3(C)C)[C@]1(OC(C)=O)CO[C@@H]1C[C@@H]2O
Compare P and Q by numeric pIC50 and name the larger one. Answer with the label corresponding to your selection.
Q
(Q: 9.82, P: 9.15)

* * *

- System: A2780
- PROTOCOL_TEXT: Cytotoxicity against A2780-C25, oxaliplatin-resistant Ovarian carcinoma cell line
- Type: functional, cell-based, Homo sapiens
- MEASUREMENT_PARAMETERS: a2780
MEASURED_ENDPOINT: IC50 (µM)
Output spec: scalar in µM, unitless text.

Query: IC50; subject: `CISPLATIN`
1.6

* * *

- Test system: MCF7
- PROTOCOL_TEXT: Concentration required to inhibit growth of human tumor […] (breast) cell line.
- Assay type: functional, cell-based
pIC50: −log10 of the molar value.
MEASURED_ENDPOINT: pIC50

molecule_smiles=CCCCCC(=O)O[C@H]1C(=O)[C@@]2(C)[C@H]([C@H](OC(=O)c3ccccc3)[C@]3(O)C[C@H](OC(=O)[C@H](O)[C@H](C=C(C)C)NC(=O)OC(C)(C)C)C(C)=C1C3(C)C)[C@]1(OC(C)=O)CO[C@@H]1C[C@@H]2O value_reported=7.76

A. CC(=O)O[C@@]12CO[C@@H]1C[C@H](O)[C@@]1(C)C(=O)[C@H](OC(=O)C3CCCCC3)C3=C(C)[C@@H](OC(=O)[C@H](O)[C@H](C=C(C)C)NC(=O)OC(C)(C)C)C[C@@](O)([C@@H](OC(=O)c4ccccc4)[C@H]21)C3(C)C
B. CC(=O)O[C@H]1C(=O)[C@@]2(C)[C@H]([C@H](OC(=O)c3ccccc3)[C@]3(O)C[C@H](OC(=O)[C@H](O)[C@H](C=C(C)C)NC(=O)OC(C)(C)C)C(C)=C1C3(C)C)[C@]1(OC(C)=O)CO[C@@H]1C[C@@H]2O
Compare A and B by numeric pIC50 and name the larger one. Answer with the label corresponding to your selection.
B
(B: 7.92, A: 7.65)

* * *

- System: A549
- PROTOCOL_TEXT: Concentration required to inhibit growth of human tumor A549 (NSCL) cell line.
- Format: functional, cell-based
pIC50: −log10 of the molar value.
MEASURED_ENDPOINT: pIC50

molecule_smiles=C/C=C/C(=O)O[C@H]1C(=O)[C@@]2(C)[C@H]([C@H](OC(=O)c3ccccc3)[C@]3(O)C[C@H](OC(=O)[C@H](O)[C@H](C=C(C)C)NC(=O)OC(C)(C)C)C(C)=C1C3(C)C)[C@]1(OC(C)=O)CO[C@@H]1C[C@@H]2O value_reported=8.77
molecule_smiles=CO[C@H]1C(=O)[C@@]2(C)[C@H]([C@H](OC(=O)c3ccccc3)[C@]3(O)C[C@H](OC(=O)[C@H](O)[C@H](CC(C)C)NC(=O)OC(C)(C)C)C(C)=C1C3(C)C)[C@]1(OC(C)=O)CO[C@@H]1C[C@@H]2O value_reported=9.22

A. CCC(=O)O[C@H]1C(=O)[C@@]2(C)[C@H]([C@H](OC(=O)c3ccccc3)[C@]3(O)C[C@H](OC(=O)[C@H](O)[C@H](CC(C)C)NC(=O)OC(C)(C)C)C(C)=C1C3(C)C)[C@]1(OC(C)=O)CO[C@@H]1C[C@@H]2O
B. CC(=O)O[C@@]12CO[C@@H]1C[C@H](O)[C@@]1(C)C(=O)[C@H](OC(=O)C3CC3)C3=C(C)[C@@H](OC(=O)[C@H](O)[C@H](CC(C)C)NC(=O)OC(C)(C)C)C[C@@](O)([C@@H](OC(=O)c4ccccc4)[C@H]21)C3(C)C
C. CC(=O)O[C@@]12CO[C@@H]1C[C@H](O)[C@@]1(C)C(=O)[C@H](OC(=O)NC3CCCCC3)C3=C(C)[C@@H](OC(=O)[C@H](O)[C@H](C=C(C)C)NC(=O)OC(C)(C)C)C[C@@](O)([C@@H](OC(=O)c4ccccc4)[C@H]21)C3(C)C
Order the records by pIC50, with each subsequent value no larger than the one before. Quick reminder: the answer is the labels in the order asked.
C, A, B
(C: 9.70, A: 9.28, B: 8.96)
